Target: T1, RBM5 RRM1-ZnF1 F142/144A (Homo sapiens, UniProt P52756 94-210, I107T;F142A;F144A)
T1 sequence: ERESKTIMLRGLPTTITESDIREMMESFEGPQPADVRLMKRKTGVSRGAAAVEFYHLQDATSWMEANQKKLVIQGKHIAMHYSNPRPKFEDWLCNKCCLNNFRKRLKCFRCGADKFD
Assay: ITC; Zn; 20 mM MES pH 6.5, 100 mM NaCl, 2 mM 2-mercaptoethanol, 25 C; protein 10-30 uM in the cell; one-site fit
Conditions: tags: none; N-terminal Met-Gly from the NcoI site (left out)
RESULT TYPE: Kd

Problem: Identify measured Kd corresponding to UGGCUCUUCUCU (ssRNA) [GGCU_12]
Result: 448 nM
